The origin of these recorded values is patent US11814447B2.

- target-under-test: T1, Human EphA2 (Ecto) (Human, UniProt P29317 24-537)
- T1 construct: extracellular domain; in-house)
- T1 sequence (P29317 24-537): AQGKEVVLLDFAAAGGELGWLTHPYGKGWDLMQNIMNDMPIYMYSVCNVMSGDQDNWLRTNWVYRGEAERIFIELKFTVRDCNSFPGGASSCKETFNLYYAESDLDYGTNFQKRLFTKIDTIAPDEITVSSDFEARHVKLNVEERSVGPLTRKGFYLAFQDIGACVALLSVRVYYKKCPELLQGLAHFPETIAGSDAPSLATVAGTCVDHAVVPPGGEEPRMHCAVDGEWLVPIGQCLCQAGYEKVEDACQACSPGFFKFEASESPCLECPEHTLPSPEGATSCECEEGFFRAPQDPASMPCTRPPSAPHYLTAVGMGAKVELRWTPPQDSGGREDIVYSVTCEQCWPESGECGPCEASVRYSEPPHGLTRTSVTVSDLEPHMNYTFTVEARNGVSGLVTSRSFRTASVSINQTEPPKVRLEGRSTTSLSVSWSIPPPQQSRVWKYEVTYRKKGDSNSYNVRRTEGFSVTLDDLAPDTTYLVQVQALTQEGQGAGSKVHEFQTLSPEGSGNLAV
- assay-name: FP competition; tracer Reference Compound C
pKi: −log10 of the molar value. Starred links: 1 amine or outer side, 2 acyl side, 3 side chain; linkers in the order of their positions; H or OH if unused. Positions of bridges follow the written chain, without caps; N, C: chain ends. No end group written: not given here. TATA = O=C(CC[*:1])N1CN(C(=O)CC[*:2])CN(C(=O)CC[*:3])C1
quantity-kind: pKi

ACPLVNPLCNLPGWTCA (linker 2-9-16 via TATA (inferred)) [Bicycle Compound Number 56 (TATA scaffold), ACPLVNPLCNLPGWTCA] = 6.74
ACPLVNPLCLMPGWGCA (linker 2-9-16 via TATA (inferred)) [Bicycle Compound Number 59 (TATA scaffold), ACPLVNPLCLMPGWGCA] = 6.94
ACGFMGLEPCELVCA (linker 2-10-14 via TATA) [Bicycle Compound Number 44 (TATA scaffold), ACGFMGLEPCELVCA] = 6.90
TPRCPLVNPLCLMPGWTCA (linker 4-11-18 via TATA) [Bicycle Compound Number 81 (TATA scaffold), TPRCPLVNPLCLMPGWTCA] = 8.01
ACTKPTGFCAYPDTICA (linker 2-9-16 via TATA) [Bicycle Compound Number 33 (TATA scaffold), ACTKPTGFCAYPDTICA] = 6.57
ACSPTPACAVQNLCA (linker 2-8-14 via TATA) [Bicycle Compound Number 31 (TATA scaffold), ACSPTPACAVQNLCA] = 6.65
ACPLVNPLCLAPGWTCA (linker 2-9-16 via TATA) [Bicycle Compound Number 82 (TATA scaffold), ACPLVNPLCLAPGWTCA] = 7.34
